# targetOfAssay: UniProtKB Q07889
# Sequence (Q07889 1-1333): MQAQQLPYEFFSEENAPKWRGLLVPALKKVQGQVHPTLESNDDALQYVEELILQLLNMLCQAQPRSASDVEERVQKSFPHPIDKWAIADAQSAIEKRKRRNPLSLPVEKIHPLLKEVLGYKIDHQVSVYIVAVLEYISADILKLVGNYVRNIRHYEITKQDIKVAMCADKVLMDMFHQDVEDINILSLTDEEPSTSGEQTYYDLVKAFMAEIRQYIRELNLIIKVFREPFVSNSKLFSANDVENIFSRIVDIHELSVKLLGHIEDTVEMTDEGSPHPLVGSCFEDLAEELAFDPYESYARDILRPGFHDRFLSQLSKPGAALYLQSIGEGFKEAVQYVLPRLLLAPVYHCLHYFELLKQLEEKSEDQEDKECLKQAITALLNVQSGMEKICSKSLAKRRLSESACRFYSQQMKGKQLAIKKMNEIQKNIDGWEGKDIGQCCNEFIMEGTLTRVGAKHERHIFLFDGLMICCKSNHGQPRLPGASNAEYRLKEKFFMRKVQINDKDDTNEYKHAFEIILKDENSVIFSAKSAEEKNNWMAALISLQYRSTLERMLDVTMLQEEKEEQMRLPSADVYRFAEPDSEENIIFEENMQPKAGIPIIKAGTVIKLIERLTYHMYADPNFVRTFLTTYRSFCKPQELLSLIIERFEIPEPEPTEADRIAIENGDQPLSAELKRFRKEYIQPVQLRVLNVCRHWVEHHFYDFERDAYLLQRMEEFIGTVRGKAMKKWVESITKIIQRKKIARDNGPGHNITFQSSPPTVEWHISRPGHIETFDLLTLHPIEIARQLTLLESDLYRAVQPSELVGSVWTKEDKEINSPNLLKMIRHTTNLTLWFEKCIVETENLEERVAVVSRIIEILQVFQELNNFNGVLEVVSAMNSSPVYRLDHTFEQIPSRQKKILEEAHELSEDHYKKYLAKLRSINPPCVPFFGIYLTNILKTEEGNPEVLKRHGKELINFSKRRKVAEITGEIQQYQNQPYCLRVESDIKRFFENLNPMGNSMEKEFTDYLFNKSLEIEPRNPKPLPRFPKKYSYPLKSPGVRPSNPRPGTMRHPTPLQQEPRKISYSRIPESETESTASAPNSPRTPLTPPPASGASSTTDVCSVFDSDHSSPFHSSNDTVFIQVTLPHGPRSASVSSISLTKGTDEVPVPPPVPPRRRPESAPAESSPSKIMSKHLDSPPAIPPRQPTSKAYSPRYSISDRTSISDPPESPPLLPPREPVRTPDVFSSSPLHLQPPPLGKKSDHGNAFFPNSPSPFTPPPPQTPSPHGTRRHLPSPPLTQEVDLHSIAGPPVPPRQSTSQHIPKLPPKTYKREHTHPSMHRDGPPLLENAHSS
Entries and their IC50 values follow.
Report the value in nM with no unit label.

C[C@@H](Nc1nnc(N2CCN(C)CC2)c2cc(=O)n(C3(C)CC3)cc12)c1cccc(C(F)F)c1F.O=CO [Example 80, formate] = 4.5
CNc1nnc(N[C@H](C)c2cccc(C(F)(F)F)c2C)c2cn(C3CC3)c(=O)cc12 = 5.7
C[C@@H](Nc1nnc(NC23CC(C2)C3)c2cc(=O)n(C3(C)CC3)cc12)c1cccc(C(F)F)c1F = 14.1

Task item: Look up IC50 for this molecule: C[C@@H](Nc1nnc(N2CCN(CC3CC3)CC2)c2cc(=O)n(N3CCN(C)CC3)cc12)c1cccc(C(F)F)c1F
Reply: 5.4
